Task for the reader: assign each of the following compounds its reported EC50.
Biological target: p300 (Homo sapiens)
Sequence (Q09472 whole entry, species assumed): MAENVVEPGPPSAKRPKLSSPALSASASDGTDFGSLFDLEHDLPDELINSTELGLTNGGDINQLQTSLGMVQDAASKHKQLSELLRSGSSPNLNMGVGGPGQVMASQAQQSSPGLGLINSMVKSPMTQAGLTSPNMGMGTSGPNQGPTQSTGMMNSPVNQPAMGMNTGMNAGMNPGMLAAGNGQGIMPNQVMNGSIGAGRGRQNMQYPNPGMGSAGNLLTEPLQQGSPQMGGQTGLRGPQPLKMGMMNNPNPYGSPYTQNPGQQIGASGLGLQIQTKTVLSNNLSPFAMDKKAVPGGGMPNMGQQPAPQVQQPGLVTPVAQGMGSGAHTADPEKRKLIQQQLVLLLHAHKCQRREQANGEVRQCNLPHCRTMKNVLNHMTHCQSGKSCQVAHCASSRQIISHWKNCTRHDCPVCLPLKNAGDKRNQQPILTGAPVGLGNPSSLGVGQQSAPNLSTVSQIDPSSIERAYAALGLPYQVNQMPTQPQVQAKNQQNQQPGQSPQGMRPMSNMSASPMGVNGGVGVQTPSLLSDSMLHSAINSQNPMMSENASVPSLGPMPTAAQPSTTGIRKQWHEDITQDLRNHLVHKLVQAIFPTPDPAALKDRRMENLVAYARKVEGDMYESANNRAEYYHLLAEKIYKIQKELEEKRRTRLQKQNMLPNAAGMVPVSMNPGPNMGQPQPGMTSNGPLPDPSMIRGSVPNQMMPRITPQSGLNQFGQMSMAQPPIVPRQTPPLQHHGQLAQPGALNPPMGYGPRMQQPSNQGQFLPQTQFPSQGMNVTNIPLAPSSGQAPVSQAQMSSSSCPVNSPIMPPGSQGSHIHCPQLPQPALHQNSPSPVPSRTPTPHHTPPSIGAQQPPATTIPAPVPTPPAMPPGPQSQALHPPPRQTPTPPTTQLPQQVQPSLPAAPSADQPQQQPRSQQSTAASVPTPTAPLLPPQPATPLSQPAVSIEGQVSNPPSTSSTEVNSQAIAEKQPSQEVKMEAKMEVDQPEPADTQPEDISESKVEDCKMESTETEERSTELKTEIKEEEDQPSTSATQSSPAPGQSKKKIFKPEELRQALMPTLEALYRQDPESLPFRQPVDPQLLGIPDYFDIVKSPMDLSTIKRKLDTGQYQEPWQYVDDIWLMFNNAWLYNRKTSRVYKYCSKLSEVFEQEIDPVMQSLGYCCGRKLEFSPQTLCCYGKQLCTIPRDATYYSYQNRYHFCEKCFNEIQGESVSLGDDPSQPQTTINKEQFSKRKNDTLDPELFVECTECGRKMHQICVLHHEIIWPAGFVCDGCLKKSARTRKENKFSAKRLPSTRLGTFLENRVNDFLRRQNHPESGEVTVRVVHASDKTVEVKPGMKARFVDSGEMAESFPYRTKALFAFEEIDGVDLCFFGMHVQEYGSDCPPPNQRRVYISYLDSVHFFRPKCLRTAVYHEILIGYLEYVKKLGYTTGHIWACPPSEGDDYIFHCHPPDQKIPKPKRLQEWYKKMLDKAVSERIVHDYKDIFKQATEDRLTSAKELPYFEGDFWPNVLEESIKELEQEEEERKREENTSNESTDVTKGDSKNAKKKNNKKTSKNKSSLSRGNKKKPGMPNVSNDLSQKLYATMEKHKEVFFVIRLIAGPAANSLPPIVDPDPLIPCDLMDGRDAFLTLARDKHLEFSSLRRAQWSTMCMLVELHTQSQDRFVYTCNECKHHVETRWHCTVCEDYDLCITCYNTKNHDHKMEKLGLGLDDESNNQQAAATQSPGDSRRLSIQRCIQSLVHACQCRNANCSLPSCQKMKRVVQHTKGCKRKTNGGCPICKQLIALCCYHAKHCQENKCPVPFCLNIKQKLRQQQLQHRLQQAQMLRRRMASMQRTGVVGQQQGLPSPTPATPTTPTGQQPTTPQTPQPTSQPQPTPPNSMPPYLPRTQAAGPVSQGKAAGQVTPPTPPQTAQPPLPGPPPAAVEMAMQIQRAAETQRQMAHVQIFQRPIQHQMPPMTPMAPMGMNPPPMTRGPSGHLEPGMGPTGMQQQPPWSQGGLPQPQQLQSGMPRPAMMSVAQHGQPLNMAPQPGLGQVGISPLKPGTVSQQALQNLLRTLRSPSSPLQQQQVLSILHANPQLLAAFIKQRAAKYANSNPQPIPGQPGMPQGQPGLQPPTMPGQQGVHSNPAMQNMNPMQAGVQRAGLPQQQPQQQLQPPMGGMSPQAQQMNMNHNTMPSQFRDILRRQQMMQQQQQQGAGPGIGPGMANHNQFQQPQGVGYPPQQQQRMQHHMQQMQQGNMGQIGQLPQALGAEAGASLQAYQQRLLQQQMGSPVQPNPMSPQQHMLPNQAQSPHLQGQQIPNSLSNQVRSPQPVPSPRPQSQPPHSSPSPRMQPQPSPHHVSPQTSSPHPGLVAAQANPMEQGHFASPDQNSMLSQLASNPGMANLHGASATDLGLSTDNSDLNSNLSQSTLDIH
Test: In vitro acetylation assay (p300, histone 3 Lys 18 / Lys 27, western blot)
Settings: Lys 18 of histone 3; compound in DMSO; EC50 for activators; read-out: H3-Lys 18 EC50
Enter your answer as a number in nM; do not include the unit.

Item FC(F)(F)c1cc(N2COc3ccccc3C2)ccc1Cl [JF17] has what recorded EC50?
103

Look up EC50: CCOc1cccc(OCCN2CCOCC2)c1C(C)Nc1ccc(O)c(C(F)(F)F)c1 (centres unmarked) [JF2]
138

Data credit: patent US20220125748A1
